# system.under.test: P. falciparum glutathione reductase (PfGR) (Plasmodium falciparum, UniProt Q94655)
# Construct: gene GR; 2 x 55 kD homodimer with FAD
# Sequence (Q94655 2-500): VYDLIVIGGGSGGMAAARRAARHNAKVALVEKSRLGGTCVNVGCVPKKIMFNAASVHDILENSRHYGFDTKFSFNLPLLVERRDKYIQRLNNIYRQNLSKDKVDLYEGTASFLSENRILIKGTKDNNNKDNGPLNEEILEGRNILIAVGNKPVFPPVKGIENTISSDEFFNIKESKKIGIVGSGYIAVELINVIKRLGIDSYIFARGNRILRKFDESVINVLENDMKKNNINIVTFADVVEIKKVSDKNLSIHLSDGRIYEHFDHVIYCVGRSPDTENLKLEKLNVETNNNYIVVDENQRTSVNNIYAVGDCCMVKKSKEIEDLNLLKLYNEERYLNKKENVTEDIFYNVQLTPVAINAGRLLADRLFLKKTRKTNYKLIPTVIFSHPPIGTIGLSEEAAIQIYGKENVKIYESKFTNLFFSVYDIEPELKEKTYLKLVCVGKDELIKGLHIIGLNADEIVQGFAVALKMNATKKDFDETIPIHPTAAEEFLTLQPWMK
# test.method.notes: GSH-mediated DTNB reduction at […] nm, Cleland plot
# Assay type: biochemical
readout: Ki

q: Give its Ki value. Item: NC(=O)c1cc(N2CC2)c([N+](=O)[O-])cc1[N+](=O)[O-] [compound 3, 5-(Aziridin-1-yl)-2,4-dinitrobenzamide]
a: 350 µM

* * *

# system.under.test: P. falciparum glutathione reductase (PfGR) (Plasmodium falciparum)
# Construct: gene GR; 2 x 55 kD homodimer with FAD
# test.method.notes: NADPH oxidation at […] nm, Cleland plot ([…]/kcat vs [I])
# Type: biochemical
Threshold check on Ki: strictly below 30 µM is y; on or above 30 µM is n.

q: Strictly below 30 µM: is that where Ki of `O=[N+]([O-])c1ccc(/C=N/O)o1` sits?
a: n

q: Same read-out for `CC(=O)c1ccc([N+](=O)[O-])cc1` ?
a: n

q: Next up: `O=C(O)c1ccc([N+](=O)[O-])cc1`
a: n

q: Now this one: `O=Cc1ccc([N+](=O)[O-])cc1`
a: y

q: Now consider `O=C1CN(/N=C/c2ccc([N+](=O)[O-])o2)C(=O)N1` .
a: y

# credit: paper PMC6943496
